Just for reference, patent US8541455B2 is where these values come from.

Counter-ions that a name gives are not always drawn.
For each entry below, report its melting point value.
Enter your answer as a number in °C; do not include the unit.

q: Write down melting point measured for item CCN(c1ccccc1)S(=O)(=O)c1ccc(-n2[nH]c(C)c(Cc3ccc(OCCN(C)C)cc3)c2=O)nc1
a: 178

q: Write down melting point measured for item CCN(c1ccccc1)S(=O)(=O)c1ccc(-n2[nH]c(C)c(Cc3cncc(C#N)c3)c2=O)nc1
a: 164

q: Write down melting point measured for item Cc1[nH]n(-c2ccccn2)c(=O)c1Cc1ccc(S(C)(=O)=O)cc1
a: 144

q: Write down melting point measured for item CCN(c1ccccc1)S(=O)(=O)c1ccc(-n2[nH]c(C)c(Cc3cccc(OCCN(C)C)c3)c2=O)nc1 (as salt: hydrochloride)
a: 124

* * *

Tested on: HIF1-alpha
EXPERIMENT_NOTES: Measurement of the stabilization of HIF1-alpha in HEKEA cells (beta-galactosidase complementation, luminescence)
Format: cell-based, human
ASSAY_SETUP: HEKEA_HIF1-alphaPLBL cells, 6 hours incubation under normoxia; concentration that produces 50% of the maximum response of this same compound
Structures can show the parent of a compound that is named as a salt.
MEASURED_PROPERTY: pEC50
Field pEC50 (float): negative decimal logarithm of the concentration in molar.

q: Write down pEC50 measured for item CCN(c1ccccc1)S(=O)(=O)c1ccc(-n2[nH]c(C)c(C3(c4ccccc4)CC3)c2=O)nc1 [Compound 80]
a: 5.48

q: Write down pEC50 measured for item CCN(c1ccccc1)S(=O)(=O)c1ccc(-n2[nH]c(C)c(Cc3cc(OC)cc(OC)c3)c2=O)nc1 [Compound 47]
a: 5.96

q: Write down pEC50 measured for item CCCc1[nH]n(-c2ccc(S(=O)(=O)N(CC)c3ccccc3)cn2)c(=O)c1Cc1ccccc1 [Compound 68]
a: 5.82

q: Write down pEC50 measured for item CCN(c1ccccc1)S(=O)(=O)c1ccc(-n2[nH]c(C)c(Cc3cccc(OCCOC)c3)c2=O)nc1 [Compound 38]
a: 5.33

q: Write down pEC50 measured for item CCN(c1ccccc1)S(=O)(=O)c1ccc(-n2[nH]c(C)c(CCc3ccccc3)c2=O)nc1 [Compound 74]
a: 5.43

q: Write down pEC50 measured for item CCN(c1ccccc1)S(=O)(=O)c1ccc(-n2[nH]c(C)c(C(C)(C)c3ccccc3)c2=O)nc1 [Compound 77]
a: 5.32

q: Write down pEC50 measured for item CCN(c1ccccc1)S(=O)(=O)c1ccc(-n2[nH]c(C)c(Cc3cccc(OCCN(C)C)c3)c2=O)nc1 [Compound 56, hydrochloride]
a: 5.68

* * *

Structures can show the parent of a compound that is named as a salt.
MEASURED_PROPERTY: melting point (°C)
Enter your answer as a number in °C; do not include the unit.

q: Write down melting point measured for item CCN(c1ccccc1)S(=O)(=O)c1ccc(-n2[nH]c(CC(C)C)c(Cc3ccccc3)c2=O)nc1 [Compound 88]
a: 138

q: Write down melting point measured for item CCNS(=O)(=O)c1ccc(-n2[nH]c(C)c(Cc3cccnc3)c2=O)nc1 (as salt: HCl) [Compound 89]
a: 196

q: Write down melting point measured for item CCN(c1ccccc1)S(=O)(=O)c1ccc(-n2[nH]c(C)c(Cc3ccccc3OC)c2=O)nc1 [Compound 57]
a: 108

q: Write down melting point measured for item CN(C1CCCC1)S(=O)(=O)c1ccc(-n2[nH]cc(Cc3cccnc3)c2=O)nc1 (as salt: HCl) [Compound 117]
a: 124

* * *

For each entry below, report its EC50 value.
Tested on: HIF1-alpha
EXPERIMENT_NOTES: Measurement of the stabilization of HIF1-alpha in HEKEA cells (beta-galactosidase complementation, luminescence)
Assay type: cell-based, human
ASSAY_SETUP: HEKEA_HIF1-alphaPLBL cells, 6 hours incubation under normoxia; concentration that produces 50% of the maximum response of this same compound
Where a name gives a salt, the structure may show the parent alone.
Put your answer as a value accompanied by its unit after it.

q: Write down EC50 measured for item CCN(c1ccccc1)S(=O)(=O)c1ccc(-n2[nH]cc(Cc3ccccc3)c2=O)nc1
a: 0.35 µM

q: Write down EC50 measured for item CCN(c1ccccc1)S(=O)(=O)c1ccc(-n2[nH]c(C)c(Cc3ncccc3OC)c2=O)nc1
a: 7.5 µM

q: Write down EC50 measured for item CC(C)(C)NS(=O)(=O)c1ccc(-n2[nH]cc(Cc3cccnc3)c2=O)nc1 [Compound 98B, hydrochloride]
a: 2.5 µM

q: Write down EC50 measured for item CCN(c1ccccc1)S(=O)(=O)c1ccc(-n2[nH]c(C)c(Cc3ccc(Cl)cc3Cl)c2=O)nc1
a: 3.8 µM

q: Write down EC50 measured for item CCN(c1ccccc1)S(=O)(=O)c1ccc(-n2[nH]c(C)c(Cc3cc(OC)ccc3OC)c2=O)nc1
a: 3.1 µM

q: Write down EC50 measured for item CCN(c1ccccc1)S(=O)(=O)c1ccc(-n2[nH]c(C)c(Cc3ccc(O)cc3)c2=O)nc1
a: 4.3 µM

q: Write down EC50 measured for item CCN(c1ccccc1)S(=O)(=O)c1ccc(-n2[nH]c(C)c(Cc3ccccc3)c2=O)nc1
a: 4.8 µM

* * *

Structures can show the parent of a compound that is named as a salt.
For each entry below, report its melting point value.

q: Write down melting point measured for item CC(C)(C)COC(=O)c1ccc(-n2[nH]cc(Cc3cccnc3)c2=O)nc1
a: 160 °C

q: Write down melting point measured for item CCN(c1ccccc1)S(=O)(=O)c1ccc(-n2[nH]c(C)c(Cc3ccc(N(C)C)cc3)c2=O)nc1
a: 182 °C

q: Write down melting point measured for item Cc1[nH]n(-c2ccc(S(=O)(=O)N(C)C3CC3)cn2)c(=O)c1Cc1cccnc1 (as salt: HCl)
a: 138 °C

q: Write down melting point measured for item COC(=O)[C@H]1CCC[C@H]1N(C)S(=O)(=O)c1ccc(-n2[nH]cc(Cc3cccnc3)c2=O)nc1 (as salt: HCl)
a: 156 °C

q: Write down melting point measured for item O=c1c(Cc2ccccc2)c[nH]n1-c1ccc(S(=O)(=O)N(CC(CO)CO)C2CCCC2)cn1
a: > 260 °C

q: Write down melting point measured for item COc1cncc(Cc2c(C)[nH]n(-c3ccc(S(=O)(=O)N(C)C(C)(C)C)cn3)c2=O)c1
a: 84 °C

q: Write down melting point measured for item Cc1[nH]n(-c2ccccn2)c(=O)c1CCc1ccccc1
a: 128 °C

* * *

Structures can show the parent of a compound that is named as a salt.
MEASURED_PROPERTY: melting point (°C)
Enter your answer as a number in °C; do not include the unit.

q: Write down melting point measured for item CCOC(=O)Cc1[nH]n(-c2ccc(S(=O)(=O)N(CC)c3ccccc3)cn2)c(=O)c1Cc1ccccc1 [Compound 106]
a: 156

q: Write down melting point measured for item CCN(c1ccccc1)S(=O)(=O)c1ccc(-n2[nH]c(C)c(C3(c4ccccc4)CC3)c2=O)nc1 [Compound 80]
a: 146

q: Write down melting point measured for item CCN(c1ccccc1)S(=O)(=O)c1ccc(-n2[nH]c(C)c(CCc3ccccn3)c2=O)nc1 [Compound 85]
a: 188

q: Write down melting point measured for item CCN(c1ccccc1)S(=O)(=O)c1ccc(-n2[nH]c(C)c(Cc3cccnc3)c2=O)nc1 (as salt: hydrochloride) [Compound 43]
a: 128

* * *

System: HIF1-alpha
EXPERIMENT_NOTES: Measurement of the stabilization of HIF1-alpha in HEKEA cells (beta-galactosidase complementation, luminescence)
Type: cell-based, human
ASSAY_SETUP: HEKEA_HIF1-alphaPLBL cells, 6 hours incubation under normoxia; concentration that produces 50% of the maximum response of this same compound
MEASURED_PROPERTY: pEC50
Field pEC50 (float): negative decimal logarithm of the concentration in molar.

q: Write down pEC50 measured for item CCN(c1ccccc1)S(=O)(=O)c1ccc(-n2[nH]c(CC(C)C)c(Cc3ccccc3)c2=O)nc1 [Compound 88]
a: 6.06

q: Write down pEC50 measured for item CCN(c1ccccc1)S(=O)(=O)c1ccc(-n2[nH]c(C)c(Cc3ccc(OC)cc3)c2=O)nc1 [Compound 54]
a: 5.19

q: Write down pEC50 measured for item CCN(c1ccccc1)S(=O)(=O)c1ccc(-n2[nH]c(C)c(Cc3cccnc3)c2=O)nc1 [Compound 43]
a: 5.51

q: Write down pEC50 measured for item CCN(c1ccccc1)S(=O)(=O)c1ccc(-n2[nH]c(C(F)(F)F)c(Cc3ccccc3)c2=O)nc1 [Compound 83]
a: 5.48

q: Write down pEC50 measured for item CCN(c1ccccc1)S(=O)(=O)c1ccc(-n2[nH]c(COC)c(Cc3ccccc3)c2=O)nc1 [Compound 82]
a: 5.82

q: Write down pEC50 measured for item CCN(c1ccccc1)S(=O)(=O)c1ccc(-n2[nH]c(C)c(CCCc3ccccc3)c2=O)nc1 [Compound 92]
a: 6.07

q: Write down pEC50 measured for item CCN(c1ccccc1)S(=O)(=O)c1ccc(-n2[nH]c(C)c(Cc3ccc(S(C)(=O)=O)cc3)c2=O)nc1 [Compound 39]
a: 5.74

q: Write down pEC50 measured for item CCN(c1ccccc1)S(=O)(=O)c1ccc(-n2[nH]c(C)c(CCc3ccccn3)c2=O)nc1 [Compound 85]
a: 5.74

q: Write down pEC50 measured for item CCN(c1ccccc1)S(=O)(=O)c1ccc(-n2[nH]c(C)c(Cc3cccc(N(C)C)c3)c2=O)nc1 [Compound 53]
a: 5.59
